Sourced from patent US12054475B2

- System: hALDH1a2 (Homo sapiens (Human), UniProt O94788)
- Sequence (O94788 whole entry): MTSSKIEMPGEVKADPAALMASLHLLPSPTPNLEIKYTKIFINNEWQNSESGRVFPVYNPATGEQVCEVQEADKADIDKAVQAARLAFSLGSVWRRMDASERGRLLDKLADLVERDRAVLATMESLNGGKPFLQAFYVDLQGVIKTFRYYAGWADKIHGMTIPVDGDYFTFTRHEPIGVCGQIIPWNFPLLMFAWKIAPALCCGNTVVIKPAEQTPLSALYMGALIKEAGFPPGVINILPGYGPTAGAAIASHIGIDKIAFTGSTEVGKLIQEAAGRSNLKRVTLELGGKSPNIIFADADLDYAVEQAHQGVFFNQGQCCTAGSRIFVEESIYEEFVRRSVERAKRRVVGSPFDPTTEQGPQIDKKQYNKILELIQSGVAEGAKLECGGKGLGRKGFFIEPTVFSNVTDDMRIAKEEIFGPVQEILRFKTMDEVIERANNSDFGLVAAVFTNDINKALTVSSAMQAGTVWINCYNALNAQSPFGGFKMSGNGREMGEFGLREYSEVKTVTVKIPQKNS
- Procedure Summary: Aldh1a2 enzyme inhibition assay (recombinant enzyme, resorufin fluorescence)
- Type: biochemical
pIC50: −log10 of the molar value.
Property Name: pIC50

O=C1CCc2cc(NC(=O)c3ccncc3CC(F)(F)F)ccc2N1 | 6.43

I. CCc1nnccc1C(=O)Nc1cc(C)c2c(c1)CCC(=O)N2
II. CCc1cnccc1C(=O)Nc1cc(CC)c2c(c1)CCC(=O)N2
III. CCc1cnccc1C(=O)Nc1cc2c(cc1C)NC(=O)CC2
Rank ascending by pIC50. Answer with the labels in sequence, matching the requested order. III, I, II

----------
- System: hALDH1a3 (Homo sapiens (Human), UniProt P47895)
- Sequence (P47895 whole entry): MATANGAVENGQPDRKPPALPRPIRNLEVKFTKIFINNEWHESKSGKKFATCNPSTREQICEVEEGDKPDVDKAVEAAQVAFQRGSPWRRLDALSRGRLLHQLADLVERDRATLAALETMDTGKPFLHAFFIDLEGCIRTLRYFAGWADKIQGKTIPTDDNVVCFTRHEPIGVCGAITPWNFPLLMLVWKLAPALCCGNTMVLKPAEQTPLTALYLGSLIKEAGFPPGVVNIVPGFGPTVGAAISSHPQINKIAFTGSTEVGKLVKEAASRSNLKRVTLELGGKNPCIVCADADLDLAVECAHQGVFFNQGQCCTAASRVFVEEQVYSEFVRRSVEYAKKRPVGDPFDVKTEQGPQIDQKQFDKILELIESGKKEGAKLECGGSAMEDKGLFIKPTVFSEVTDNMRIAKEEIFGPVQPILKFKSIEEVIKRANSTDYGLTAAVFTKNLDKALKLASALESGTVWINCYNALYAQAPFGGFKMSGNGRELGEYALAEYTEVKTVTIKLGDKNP
- Procedure Summary: Aldh1a3 enzyme inhibition assay (recombinant enzyme, resorufin fluorescence)
- Type: biochemical
- Test Context: read-out: hAldh1a3 IC50
Property Name: IC50

Sample records with IC50:
CCc1cnccc1C(=O)Nc1ccc2c(c1)CCC(=O)N2 | < 0.1 µM
CCC1COCCN1C(=O)Nc1cc(C)c2c(c1)CCC(=O)N2 (racemic) | > 5 µM
Cc1cc(NC(=O)c2ccnc3c2CCN3)cc2c1NC(=O)CC2 | 1 to 5 µM

Could you tell me which IC50 is on file for Cc1cc(NC(=O)c2ccncc2CC2CCC2)cc2c1NC(=O)CC2 ? 0.25 to 1 µM

Which IC50 value belongs to CCc1cnccc1C(=O)Nc1cc(CC)c2c(c1)CCC(=O)N2 ? < 0.1 µM

For the compound CCc1cnccc1C(=O)Nc1cnc2c(c1)CCC(=O)N2 , what IC50 is on record? 1 to 5 µM

----------
- System: hALDH1a2 (Homo sapiens (Human), UniProt O94788)
- Procedure Summary: Aldh1a2 enzyme inhibition assay (recombinant enzyme, resorufin fluorescence)
- Type: biochemical
pIC50: −log10 of the molar value.
Property Name: pIC50

Please review the entries below; each comes with its answer.
Cc1cc(Nc2ncc3ccccc3n2)cc2c1NC(=O)C(C)(C)C2 | 6.79
O=C1CCc2cc(NC(=O)c3ccncc3CC(F)(F)F)c(F)c(F)c2N1 | 6.12
CCc1cnccc1C(=O)Nc1cc2c(c3ccncc13)NC(=O)CC2 | 6.92
Cc1cc(Nc2cnc3ccccc3n2)cc2c1NC(=O)C(C)(C)C2 | 7.05

A. CCc1cnc(Cl)cc1C(=O)Nc1cc(C)c2c(c1)CCC(=O)N2
B. CCc1cnccc1C(=O)Nc1cc2c(cn1)NC(=O)CC2
C. CCc1cnccc1C(=O)Nc1cc(F)c2c(c1)CCC(=O)N2
D. CCc1cnccc1C(=O)Nc1ccc2c(c1)CCC(=O)N2
Hello, I need these entries ordered by pIC50, highest reading first. Thanks! Give the order by naming the labels one after another as requested. A, C, D, B

----------
- System: hALDH1a2 (Homo sapiens (Human), UniProt O94788)
- Procedure Summary: Aldh1a2 enzyme inhibition assay (recombinant enzyme, resorufin fluorescence)
- Format: biochemical
pIC50: −log10 of the molar value.
Property Name: pIC50

CCc1cnccc1C(=O)Nc1cc(C)c2c(c1)CCC(=O)N2 [Compound 140] | 7.00
CCc1cnc(Cl)cc1C(=O)Nc1ccc2c(c1)CCC(=O)N2 [Compound 77] | 6.38
Cc1cc(NC(=O)c2ccnc3c2CCO3)cc2c1NC(=O)CC2 [Compound 152] | 6.09
O=C1CCc2cc(NC(=O)c3ccncc3CC3CC3)ccc2N1 [Compound 59] | 6.28
Cc1cc(NC(=O)c2ccnc3c2CCN3)cc2c1NC(=O)CC2 [Compound 153] | 6.31

a. CCc1cnccc1C(=O)Nc1cc2c(c(F)c1F)NC(=O)CC2 [Compound 143]
b. CCc1cnccc1C(=O)Nc1cc(C#N)c2c(c1)CCC(=O)N2 [Compound 139]
c. Cc1cc(NC(=O)c2ccncc2CC(F)(F)F)cc2c1NC(=O)CC2 [Compound 151]
d. CCc1cnccc1C(=O)Nc1cc2c(c(C)c1F)NC(=O)CC2 [Compound 146]
Would you mind ranking these compounds by ascending pIC50? Enter labels, ranked according to the request. b, a, d, c

a. CCc1cnccc1C(=O)Nc1cc(Cl)c2c(c1)CCC(=O)N2 [Compound 142]
b. CCc1cnccc1C(=O)Nc1cc2c(c(C)c1C)NC(=O)CC2 [Compound 147]
Of a and b , which one carries the higher reported pIC50? Please respond with the label that marks your chosen entry. a
(a: 7.24, b: 6.37)

a. O=C1CCc2cc(NC(=O)c3ccncc3CC(F)(F)F)cc(Cl)c2N1 [Compound 168]
b. Cc1cc(NC(=O)c2ccncc2CC2CCC2)cc2c1NC(=O)CC2 [Compound 155]
c. CCc1cnccc1C(=O)Nc1cnc2c(c1)CCC(=O)N2 [Compound 154]
Which order do these items take when sorted by rising pIC50? List them. When ranking, write the labels in the order the request describes. c, b, a
